# Test system: Rattus norvegicus
# experiment-summary: LD50 values was measured by using probit analysis method in rats
# Assay type: ADME, organism-based
# condition: in vivo

| compound | unit-of-measurement | LD50 |
| --- | --- | --- |
| C[N+](C)(C)NP(=O)(N[N+](C)(C)C)Oc1ccccc1.[I-].[I-] | µg/mL | 2.37 |
| C[N+](C)(C)NP(=O)(N[N+](C)(C)C)c1ccccc1.[I-].[I-] | µg/mL | 2.15 |
| C[N+](C)(C)[N-]P(=O)(N[N+](C)(C)C)Oc1ccccc1.[I-] (stereo unspecified) | µg/mL | 15 |

====

# Test system: Rattus norvegicus
# experiment-summary: LD50 values was measured by using probit analysis method in rats
# Type: ADME, organism-based
# condition: in vivo
quantity-name: LD50

| compound | reading |
| --- | --- |
| C[N+](C)(C)[N-]P(=O)(N[N+](C)(C)C)c1ccccc1.[I-] (stereo not drawn) | ~ 15 ug ml-1 |
| C[N+](C)(C)N=P([O-])(N[N+](C)(C)C)c1ccccc1.[I-] (stereo not drawn) | ~ 15 ug ml-1 |
| C[N+](C)(C)N=P([O-])(N[N+](C)(C)C)Oc1ccccc1.[I-] (stereo not drawn) | ~ 15 ug ml-1 |
